Listing of entries alongside the reported normalized growth.
runDescription: chemical genetic growth profiling, strain panel (AID 1159580);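 further: tested at 20 µM; growth read once vehicle control cultures reached saturation at 30 °C; 1 = growth at the plate median or of vehicle wells; lower values mean less growth of the strain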
appliedConditions: S. cerevisiae deletion strains, growth OD, locus YJR043C, strain POL32, stronger effect = lower value
Hit rate of the full screen: of about 5,500 compounds, about 2,000 (36%) were called active. Another 18% or so got no clear call; they are omitted. The list shows a part of the results.
attributeMeasured: normalized growth

{"compound": "Cn1c(SCC(=O)N2CCOCC2)nnc1-c1ccc2ncccc2c1", "measured": 1.01}
{"compound": "CCC(=O)OCC(=O)C1(OC(=O)CC)C(C)CC2C3CCC4=CC(=O)C=CC4(C)C3(Cl)C(O)CC21C (stereo not given)", "measured": 1.03}
{"compound": "CC(=O)[C@@]1(O)CCC2C3C=C(Cl)C4=CC(=O)[C@@H]5CC5[C@]4(C)C3CC[C@@]21C (stereo not given in full)", "measured": 1}
{"compound": "Cn1c(SCc2ccccc2)nnc1-c1ccc2ncccc2c1", "measured": 0.997}
{"compound": "O=[N+]([O-])c1cccnc1Oc1ccc(Cl)cc1", "measured": 0.886}
{"compound": "NC(=O)c1ccccc1O", "measured": 0.985}
{"compound": "C/C=C(\\C)C(=O)O[C@@H]1c2c(ccc3ccc(=O)oc23)OC(C)(C)[C@@H]1OC(C)=O", "measured": 1.02}
{"compound": "CCOC(=O)c1nnc2cc(C)nn2c1C", "measured": 0.987}
{"compound": "CC(C)=CC1C(CO)C1(C)C (stereo not given)", "measured": 1.04}
{"compound": "CCn1nc(C)cc1C(=O)O", "measured": 0.962}
